The entries below are paired with their reported SPOT peptide array binding signal intensity.
- target of assay: CaHse1
- test: SPOT peptide array binding signal intensity (averaged, normalized) (arbitrary units (background-subtracted, floor 0; scale differs between SH3 domains)); higher = stronger binding of the SH3 domain to the peptide
attribute measured: SPOT peptide array binding signal intensity

| binder | value reported |
| --- | --- |
| VKPRQLFPIPLNKVD | 3.25 |
| RKRAPTPPAPSRSEK | 3.25 |
| AGKRRLPLVRFKASD | 71.5 |
| QFDLKMPSKPIHNLK | 49.8 |
